- test_summary: NCI Yeast Anticancer Drug Screen. Data for the sgs1 strain (AID 173);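 further: 0% = growth of vehicle-only control cultures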
- recorded_conditions: S. cerevisiae sgs1 mutant, at 1.2 µM, active compounds read high
- Procedure: Growth inhibition of yeast strains with defined genetic alterations is measured as a screen for potential anti-cancer activity. Selected strains with alterations in DNA damage repair or cell cycle control were exposed to compounds and growth inhibition was measured relative to vehicle treated controls. The strain used in this assay is sgs1
Compounds without any hit were thinned out: in the full panel of roughly 79,000, 15% have a hit.
As shown below, each of these compounds has a reported growth inhibition value.
Record the value in %, omitting the unit from your answer.

Below, each entry is followed by its recorded growth inhibition result.
CN=C(N)N/N=C/c1ccc2c(c1)Cc1ccccc1-2: 12
CSC(=S)Nc1cccc(C)n1: -47
NC(=NCc1ccccc1)N/N=C\c1ccnc2ccccc12: -1
COc1cc(C2c3cc4c(cc3OC(Nc3ccccc3)C2C)OCO4)cc(OC)c1O (configuration not stated): -1
BrCC[P+](c1ccccc1)(c1ccccc1)c1ccccc1: -35
Nc1nc(Cl)c(Cl)c(Cl)n1: 1
O=[N+]([O-])C(=C(Sc1ccccc1)Sc1ccccc1)C(Cl)=C(Cl)Cl: 13
CC(/C=C/c1ccc(Cl)cc1)=N\NC(=S)NCC(C)C: -13

Q: Which growth inhibition value is on record for CCCCCCCC1(N=[N+]=[N-])C(=O)c2ccccc2N(C)C1=O (configuration not stated) ?
A: 9

Q: Cool, now CCCCCCCCCC/C=C\C(=O)O
A: -7

Q: Cool, now O=[N+]([O-])/C=C/c1ccc2ccccc2c1
A: 23

Q: Cool, now CCC#CCCCOC(=O)c1cc([N+](=O)[O-])cc([N+](=O)[O-])c1
A: -1
